assay.text: recombinant UMI read abundance after kanamycin selection (control-corrected) (log10(CPM+1)); higher = more efficient recombination; extreme values may be limits of the assay; sequences stand for … in AGTGCAGAGAAAATCGGCCAGTTTTCTCTGCCTGCAGTCCGCATGCCGTGGGACCCCTTGGGTTCTAACCTGTTGCCTAGATTTATGCAGCGGACTGCCTTTCTCCCAAAGTGATAAACCGG…AGGTTGGTTTCACT; site = the 11-nt donor;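 note: IS621 bridge recombinase in Escherichia coli cells against a fixed T5 target plasmid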
readout.kind: recombinant UMI read abundance (log10)
Please state the value as a number alone, without comment.

>  <residue.string>
CCTACGCCATGGACCGGTTTTCCCGGTAATCCGTATTTGAA (site CCTACGCCTTT)

>  <readout.kind>
recombinant UMI read abundance (log10)

>  <result>
0.0231

$$$$
>  <residue.string>
CATCCGGCATGGACCGGTTTTCCCGGTAATCCGTATTTGTC (site CATCCGGCTGA)

>  <readout.kind>
recombinant UMI read abundance (log10)

>  <result>
0.293

$$$$
>  <residue.string>
CAGGTCACATGGACCGGTTTTCCCGGTAATCCGTATTTGTC (site CAGGTCACTGA)

>  <readout.kind>
recombinant UMI read abundance (log10)

>  <result>
2.7

$$$$

### Prompt Please give measured recombinant UMI read abundance (log10) of the following entry: AGGACTACATGGACCGGTTTTCCCGGTAATCCGTATTTGAG (site AGGACTACTCT)
### Response 1.54

### Prompt Tell me measured recombinant UMI read abundance (log10) for CGATTGGCATGGACCGGTTTTCCCGGTAATCCGTATTTGCT (site CGGTTGGCTAG) please.
### Response 0

* * *

assay.text: recombinant UMI read abundance after kanamycin selection (control-corrected) (log10(CPM+1)); higher = more efficient recombination; extreme values may be limits of the assay; sequences stand for … in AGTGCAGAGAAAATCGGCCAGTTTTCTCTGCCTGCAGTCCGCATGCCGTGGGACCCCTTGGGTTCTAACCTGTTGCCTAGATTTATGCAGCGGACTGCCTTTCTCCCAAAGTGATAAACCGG…AGGTTGGTTTCACT; site = the 11-nt donor
Below, each of the sequences is paired with its reported recombinant UMI read abundance (log10) value.
// response body must contain only the number

Example cases with answers are listed next.
>  <residue.string>
CAGGTCACATGGACCGGTTTTCCCGGTAATCCGTATTTGGG (site CATGTCACTCC)

>  <readout.kind>
recombinant UMI read abundance (log10)

>  <result>
0.0163

$$$$
>  <residue.string>
GTGGAGCCATGGACCGGTTTTCCCGGTAATCCGTATTTGTG (site GTGGAGTCTCA)

>  <readout.kind>
recombinant UMI read abundance (log10)

>  <result>
1.74

$$$$
>  <residue.string>
CGAGGACCATGGACCGGTTTTCCCGGTAATCCGTATTTGGG (site TGAGGACCTCC)

>  <readout.kind>
recombinant UMI read abundance (log10)

>  <result>
0.02

$$$$

### Prompt Please give measured recombinant UMI read abundance (log10) of the following entry: GCAGGTGCATGGACCGGTTTTCCCGGTAATCCGTATTTGAT (site GCAGGTGCTAT)
### Response 2.1

### Prompt Assign recombinant UMI read abundance (log10) to the following record: CCTTTGGCATGGACCGGTTTTCCCGGTAATCCGTATTTGCT (site CGTTTGGCTAG)
### Response 0

### Prompt // fetch recombinant UMI read abundance (log10) given entry ACGCATCCATGGACCGGTTTTCCCGGTAATCCGTATTTGAC (site ACTCATCCTGT)
### Response 0

### Prompt Specify recombinant UMI read abundance (log10) for ACCCTTTCATGGACCGGTTTTCCCGGTAATCCGTATTTGAC (site ACCCTTTCTGT) and stop.
### Response 0

### Prompt Specify measured recombinant UMI read abundance (log10) for GTAGGTACATGGACCGGTTTTCCCGGTAATCCGTATTTGAC (site GTAGGTCCTGT) .
### Response 0

### Prompt Identify measured recombinant UMI read abundance (log10) associated with ATTAAACCATGGACCGGTTTTCCCGGTAATCCGTATTTGCC (site ATTAAACCTGG)
### Response 0
